src = PubChem BioAssay AID2060895

Each item that follows carries a reported pIC50.
System: PDC 899932-113-R3-J6 complex spheroid viability
measurement-protocol: Anticancer human tumor 899932-113-R3-J6-PDC patient-derived melanoma cell line growth inhibition [RAS]
condition-set: curve of first compound; second compound 0.0316 µM
In simple prose, pIC50 is minus the logarithm base ten of a concentration in moles per litre.

Field: example entries. Status: answers known.
Please give the measured pIC50 for this compound: C[C@@H](NC(=O)c1ncnc(N)c1Cl)c1ncc(C(=O)Nc2cc(C(F)(F)F)c(Cl)cn2)s1 + C=CC(=O)N1CCN(c2nc(OCC3CCCN3C)nc3c(F)c(-c4nc(N)cc(C)c4C(F)(F)F)c(Cl)cc23)C(C)C1
5.14

Another compound to check: CC(C)n1nc(-c2ccc3oc(N)nc3c2)c2c(N)ncnc21 + C#Cc1c(F)ccc2cc(O)cc(-c3ncc4c(N5CC6CCC(C5)N6)nc(OCC56CCCN5CC(F)C6)nc4c3F)c12
7.04

Another compound to check: CC(Nc1ccc2c(c1)OCCn1cc(N3C(=O)OCC3C(F)F)nc1-2)C(N)=O (stereo not drawn) + C#Cc1c(F)ccc2cc(O)cc(-c3ncc4c(N5CC6CCC(C5)N6)nc(OCC56CCCN5CC(F)C6)nc4c3F)c12
5.75

Another compound to check: C[C@@H](NC(=O)c1ncnc(N)c1Cl)c1ncc(C(=O)Nc2cc(C(F)(F)F)c(Cl)cn2)s1 + C#Cc1c(F)ccc2cc(O)cc(-c3ncc4c(N5CC6CCC(C5)N6)nc(OCC56CCCN5CC(F)C6)nc4c3F)c12
5.18

Moving on to the next compound.
Please give the measured pIC50 for this compound: CCC(CC)c1cc(NC2CCC(N)C2)n2nccc2n1 (stereo not drawn) + C#Cc1c(F)ccc2cc(O)cc(-c3ncc4c(N5CC6CCC(C5)N6)nc(OCC56CCCN5CC(F)C6)nc4c3F)c12
5.77

###

System: PDC 899932-113-R3-J6 complex spheroid viability
measurement-protocol: Anticancer human tumor 899932-113-R3-J6-PDC cell line growth inhibition [RAS];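 on viability, T/C: spheroids exposed to agents for seven days before readout; 100% = DMSO vehicle control wells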
condition-set: compound 0.316 µM; stronger effect = lower value
Each item that follows carries a reported viability, T/C.

Please give the measured viability, T/C for this molecule: C=CC(=O)N1CCN(c2nc(OCC3CCCN3C)nc3c(F)c(-c4nc(N)cc(C)c4C(F)(F)F)c(Cl)cc23)C(C)C1 (centres undefined)
105% [middle of 12 runs]

Another molecule to check: CC(C)NCC(C(=O)N1CCN(c2ncnc3c2C(C)CC3O)CC1)c1ccc(Cl)cc1 (centres undefined)
97.7% [middle of 4 runs]

Another molecule to check: CCN1CCN(Cc2ccc(Nc3ncc(F)c(-c4cc(F)c5nc(C)n(C(C)C)c5c4)n3)nc2)CC1
71% [middle of 4 runs]

More entries:
Please give the measured viability, T/C for this molecule: CC1(O)CCCC1n1c(=O)c(C(F)F)cc2cnc(NC3CCN(S(C)(=O)=O)CC3)nc21 (centres undefined)
69.4% [middle of 4 runs]

###

System: PDC 899932-113-R3-J6 complex spheroid viability
measurement-protocol: Anticancer human tumor 899932-113-R3-J6-PDC cell line growth inhibition [RAS];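 on viability, T/C: spheroids exposed to agents for seven days before readout; 100% = DMSO vehicle control wells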
condition-set: second compound 1 µM; first compound 0.01 µM; stronger effect = lower value
Each item that follows carries a reported viability, T/C.
Respond numerically; units are % and should not be typed.

Please give the measured viability, T/C for this compound: CC(C)n1nc(-c2ccc3oc(N)nc3c2)c2c(N)ncnc21 + C#Cc1c(F)ccc2cc(O)cc(-c3ncc4c(N5CC6CCC(C5)N6)nc(OCC56CCCN5CC(F)C6)nc4c3F)c12
96.5
